target: the molecule itself; assay: SEC; analytical gel filtration, Superdex 75 10/300 increase, 25 mM Tris pH 8.0, 150 mM NaCl, 2 mM DTT; 6 mg/ml, 100 μl injected; self-association, dimer or monomer by elution volume
recorded_endpoint: binding result

AFF4-THD Y1024A (domain or fragment, human, UniProt Q9UHB7 902-1163, looked up, AFF4 THD, human, residues 902-1163, with Y1024A; PDB 6K7P is the wild-type parent of the same limits; source: E. coli BL21 (DE3), purified (Ni-NTA, Hi-Trap SP HP, Superdex 200)) RRTKLVFDDRNYSADHYLQEAKKLKHNADALSDRFEKAVYYLDAVVSFIECGNALEKNAQESKSPFPMYSETVDLIKYTMKLKNYLAPDATAADKRLTVLCLRCESLLYLRLFKLKKENALKASKTLTEHLKNSYNNSQAPSPGLGSKAVGMPSPVSPKLSPGNSGNYSSGASSASASGSSVTIPQKIHQMAASYVQVTSNFLYATEIWDQAEQLSKEQKEFFAELDKVMGPLIFNASIMTDLVRYTRQGLHWLRQDAKLIS    binds
